// values below are reported koff
Molecular target: T1, hErbB3.mFc (soluble dimeric human ErbB3 extracellular domain fused to mouse Fc) (human)
T1 construct: called dimeric
T1 chain: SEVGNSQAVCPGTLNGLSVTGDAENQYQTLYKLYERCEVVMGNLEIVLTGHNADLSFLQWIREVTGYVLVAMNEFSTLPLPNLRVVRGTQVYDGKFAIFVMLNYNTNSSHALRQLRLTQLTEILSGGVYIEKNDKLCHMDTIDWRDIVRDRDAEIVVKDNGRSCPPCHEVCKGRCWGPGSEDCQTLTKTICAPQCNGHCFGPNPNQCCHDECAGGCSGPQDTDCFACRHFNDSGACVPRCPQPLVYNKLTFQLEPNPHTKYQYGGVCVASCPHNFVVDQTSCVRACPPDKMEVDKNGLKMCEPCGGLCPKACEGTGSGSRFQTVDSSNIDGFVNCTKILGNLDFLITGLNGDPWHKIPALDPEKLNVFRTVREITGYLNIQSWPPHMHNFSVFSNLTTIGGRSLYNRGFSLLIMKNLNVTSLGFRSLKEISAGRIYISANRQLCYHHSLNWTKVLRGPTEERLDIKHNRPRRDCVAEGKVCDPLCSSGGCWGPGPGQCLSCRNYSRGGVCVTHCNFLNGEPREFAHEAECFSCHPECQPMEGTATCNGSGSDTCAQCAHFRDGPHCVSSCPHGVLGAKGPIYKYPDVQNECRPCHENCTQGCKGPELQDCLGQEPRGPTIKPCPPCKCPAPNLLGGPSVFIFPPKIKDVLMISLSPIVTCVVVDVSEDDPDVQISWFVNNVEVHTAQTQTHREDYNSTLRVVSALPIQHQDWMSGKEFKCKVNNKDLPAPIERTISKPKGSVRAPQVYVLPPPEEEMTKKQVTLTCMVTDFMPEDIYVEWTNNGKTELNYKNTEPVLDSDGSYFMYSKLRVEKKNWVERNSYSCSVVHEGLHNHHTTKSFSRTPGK
Assay: SPR (Biacore), 25 C, mAb capture format
Numbers only here, please. The scale is s⁻¹.

Below, 3 binders whose answers are already recorded.
binder	measurementUnit	koff
H4H2114P (antibody, V domains shown, Fully human, human IgG4 Fc (H4H prefix)) VH: QVQLVESGGGVVQPGRSLRLSCAASGFTFSSYGMHWVRQAPGKGLEWVAGMSYDGSSKYYEDSVKGRFTISRDNSKNTLNLQMNSLRVEDTAVYYCAKERDYVEYVDSYYGMDVWGQGTTVTVSA VL: AIQMTQSPSSLSASVGDRVTITCRASQGIRNDLGWYQQKPGKAPKVLIYAASSLQSGVPSRFSGSGSGTVFTLTISSLQPEDFATYYCLQDYNYPLTFGGGTKVEIKR	s⁻¹	7.98e-06
H4H2098P (antibody, V domains shown, Fully human, human IgG4 Fc (H4H prefix)) VH: QVQLVESGGGVVQPGRSLRLSCAASGFTFSSFGMHWVRQAPGKGLEWVAVIWYVEINKYHADSVKGRFTISRDDSKNTVYLQMNSLRAEDTAVYYCARDWNDGDYGMDVWGQGTTVTVSS VL: DIQLTQSPSFLSASVGDRVTITCWASQGISSFLAWYQQKAGKAPRLLIYAASTLQTGVPSRFSGSGSGTEFTLTISSLQPGDFATYHCQQLNSYPYTFGQGTKLEIKR	s⁻¹	8.97e-06
H4H2132P (antibody, V domains shown, Fully human, human IgG4 Fc (H4H prefix)) VH: EVQLVESGGGVVRPGGSLRLSCAASGFTFDDYGMSWVRQFPGKGLEWVSSIDGNGGNTGYSDSVKGRFTISRDNAKNSLHLQMNSLRAEDTALYHCARDPDYDSVWGNYRPFDYWGQGTLVTVSS VL: DIVMTQSPDSLAVSLGERATINCKSSQSVLSSSNDNNYLAWFQQKPGQPPNLLIYWASTRDSGVPDRFSASGSGTDFTLAISSLQAEDVAVYYCHQYYSSPPTFGQGTKVEIKR	s⁻¹	3.35e-06

Specify reported koff for the binder shown: H4H2092P (antibody, V domains shown, Fully human, human IgG4 Fc (H4H prefix)) VH: EVQLVESGGGVVRPGGSLRLSCAASGFTFEDYGMNWVRQVPGKGLEWVSGTNWNGGITGYTGSVKGRFTISRDNAKNSLYLQMNSLRAEDTALYHCARDSGDQDAFDIWGQGTMVTVSS VL: DIQLTQSPSFLSASVGDRVTITCWASQDISSYLAWYQQKPGKAPKLLIYAASTFQSGVPSRFSGSGSGTEFTLTISNLQPEDFATYYCQQLDSYPLSFGGGTKVEIKR
7.46e-06
